read-out: Tissue Factor, F3 (gene 2152); experiment: BSK_LPS_TissueFactor: BioMAP Diversity Plus: LPS Assay for Tissue Factor Biomarker Activity (AID 2283084); conditions: primary human HUVEC with PBMC; actives raise or lower the signal
Activity calls are given as the source filed them. The calls were made as follows: active = hit-call score of the fitted dose curve at least 0.9, where 1 is the maximum; inactive = score below 0.9.
Pick one and only one: class 1 = active, class 0 = inactive

compound=CC(=O)/C=C/C1=C(C)CCCC1(C)C qualitative_label="class 0"

### Prompt Outcome logged for "O=[N+]([O-])c1cc(C(F)(F)F)ccc1Cl" in this assay:
### Response class 0

### Prompt Outcome logged for CCCCCCCCCCCCCCCCCC(=O)OCC(CC)CCCC (stereo not given) in this assay:
### Response class 0

### Prompt Outcome logged for "COc1cc(C=O)ccc1OC(=O)C(C)C" in this assay:
### Response class 0

### Prompt Outcome logged for "Cc1ccc(Nc2ccc(O)c3c2C(=O)c2ccccc2C3=O)cc1" in this assay:
### Response class 0

### Prompt Outcome logged for OC1OC[C@@H](O)[C@H](O)[C@H]1O (stereo not given in full) in this assay:
### Response class 0

### Prompt Outcome logged for CC1CCC(C(C)CS)CC1S (stereo not given) in this assay:
### Response class 1

### Prompt Outcome logged for "c1ccc2c(c1)c1cccc3ccc4cccc2c4c31" in this assay:
### Response class 1

### Prompt Outcome logged for "Nc1cc([N+](=O)[O-])ccc1Cl" in this assay:
### Response class 0

### Prompt Outcome logged for BrC1CCC(Br)C(Br)CCC(Br)C(Br)CCC1Br (stereo not given) in this assay:
### Response class 0

### Prompt Outcome logged for "CCn1c2ccccc2c2cc(N)ccc21" in this assay:
### Response class 0

----------
target: CCAAT/enhancer-binding protein beta (Homo sapiens) (UniProt P17676); assay: ATG_C_EBP_CIS: Attagene CIS-FACTORIAL HepG2 Assay for human CCAAT/Enhancer Binding Protein (C/EBP) beta (AID 2282927); conditions: HepG2 Attagene cis-factorial transcription factor reporter; actives raise or lower the signal
Sequence (P17676 whole entry, looked up): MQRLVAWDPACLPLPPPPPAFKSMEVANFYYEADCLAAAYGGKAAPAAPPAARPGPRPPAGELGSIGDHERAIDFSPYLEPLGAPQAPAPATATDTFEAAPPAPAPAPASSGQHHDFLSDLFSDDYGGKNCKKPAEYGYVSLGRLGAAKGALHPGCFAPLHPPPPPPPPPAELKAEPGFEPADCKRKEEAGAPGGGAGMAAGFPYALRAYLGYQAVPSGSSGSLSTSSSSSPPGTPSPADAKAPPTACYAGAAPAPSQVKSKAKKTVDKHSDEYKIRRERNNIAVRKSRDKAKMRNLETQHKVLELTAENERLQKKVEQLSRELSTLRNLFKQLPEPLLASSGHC
Active and inactive are the calls of the source. How the source made its calls: active means hit-call score of the fitted dose curve at least 0.9, where 1 is the maximum; inactive means score below 0.9.
Pick one and only one: true (active), false (inactive)

Here's what some known entries look like.
compound=O=S(=O)(O)c1cccc2c(S(=O)(=O)O)cccc12 qualitative_label=false
compound=C/C=C(\C)C(=O)OCc1ccccc1 qualitative_label=false
compound=CC(C)(Oc1ccc(CCNC(=O)c2ccc(Cl)cc2)cc1)C(=O)O qualitative_label=false

### Prompt Outcome logged for CN1[C@@H]2CC(OC(=O)[C@H](CO)c3ccccc3)C[C@H]1[C@@H]1O[C@@H]12 (some centres not stated) in this assay:
### Response false

### Prompt Outcome logged for "Cc1c(N(C)C)c(=O)n(-c2ccccc2)n1C" in this assay:
### Response false

### Prompt Outcome logged for "O=C[C@@H](O)[C@H](O)[C@H](O)CO" in this assay:
### Response false

----------
target: Cellular tumor antigen p53 (Homo sapiens) (UniProt P04637); test: ATG_p53_CIS: Attagene CIS-FACTORIAL HepG2 Assay for human p53 Transcription Factor (AID 2282994); conditions: HepG2 p53 cis-element reporter, Attagene mRNA; actives raise or lower the signal
Sequence (P04637 whole entry, looked up): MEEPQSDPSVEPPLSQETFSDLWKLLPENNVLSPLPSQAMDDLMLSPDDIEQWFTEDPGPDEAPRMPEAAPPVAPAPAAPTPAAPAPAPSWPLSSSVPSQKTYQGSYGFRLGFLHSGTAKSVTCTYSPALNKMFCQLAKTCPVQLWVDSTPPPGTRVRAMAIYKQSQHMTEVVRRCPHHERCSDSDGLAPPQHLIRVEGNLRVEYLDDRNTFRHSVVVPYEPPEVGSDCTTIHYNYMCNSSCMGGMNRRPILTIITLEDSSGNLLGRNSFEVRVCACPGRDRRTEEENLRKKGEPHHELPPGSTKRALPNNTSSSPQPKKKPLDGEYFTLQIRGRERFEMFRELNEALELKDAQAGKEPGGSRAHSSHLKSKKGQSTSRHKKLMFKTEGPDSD
Activity calls are given as the source filed them. How the source made its calls: active means hit-call score of the fitted dose curve at least 0.9, where 1 is the maximum; inactive means score below 0.9.
Pick one and only one: 1.0 for active, 0.0 for inactive

Here's what some known entries look like.
molecule="COC(C)CCO (configuration not stated)" qualitative_label=1.0
molecule="FC1(F)C(F)(F)C(F)(F)C2(F)C(F)(C1(F)F)C(F)(F)C(F)(F)C1(F)C(F)(F)C(F)(F)C(F)(F)C(F)(F)C12F (configuration not stated)" qualitative_label=0.0
molecule=C=C(C)[C@@H]1CCC2=CC(=O)C[C@@H](C)[C@]2(C)C1 qualitative_label=0.0

### Prompt Outcome logged for "CC(=O)O[C@H](CC(=O)[O-])C[N+](C)(C)C" in this assay:
### Response 0.0

### Prompt Outcome logged for "c1ccc2[nH]ccc2c1" in this assay:
### Response 0.0

### Prompt Outcome logged for "Cc1ccc(C=O)s1" in this assay:
### Response 0.0

### Prompt Outcome logged for CCCCCC(CO)CCC (configuration not stated) in this assay:
### Response 0.0

### Prompt Outcome logged for "CC(C)[C@H]1CC[C@@H](C)CC1=O" in this assay:
### Response 0.0

### Prompt Outcome logged for "C[C@]12CC[C@H]3[C@@H](CCC4=CC(=O)CC[C@@]43C)[C@@H]1CC[C@@H]2C(=O)CO" in this assay:
### Response 1.0

### Prompt Outcome logged for "CC(C)=CCC[C@](C)(O)[C@@H]1CC=C(C)CC1" in this assay:
### Response 0.0

### Prompt Outcome logged for CC(CN1c2ccccc2Sc2ccccc21)N(C)C (configuration not stated) in this assay:
### Response 1.0

### Prompt Outcome logged for "O=C1CCCCCCCCCCOCCCCO1" in this assay:
### Response 0.0

----------
assay: ATG_SREBP_CIS: Attagene CIS-FACTORIAL HepG2 Assay for human Sterol Regulatory Element Binding (SREBP) (AID 2282962); conditions: HepG2 Attagene cis-factorial SREBP reporter, mRNA; actives raise or lower the signal
The source made the active and inactive calls. How the source made its calls: active means hit-call score of the fitted dose curve at least 0.9, where 1 is the maximum; inactive means score below 0.9.
Pick one and only one: active, inactive

compound=C=C(C)C(=O)O[C@H]1C[C@@H]2CC[C@@]1(C)C2(C)C qualitative_label=active
compound=Nc1cc([N+](=O)[O-])ccc1O qualitative_label=inactive
compound=[Ca+2] qualitative_label=inactive
compound=Nc1cc([N+](=O)[O-])ccc1Cl qualitative_label=inactive
compound="O=C(O)COCCN1CCN(C(c2ccccc2)c2ccc(Cl)cc2)CC1 (centres undefined)" qualitative_label=inactive
compound=Nc1ccc(S(=O)(=O)O)c(N)c1 qualitative_label=inactive
compound=CC(C)(C)NC(N)=O qualitative_label=inactive
compound=CN(C)CCCN qualitative_label=inactive
compound=C=CCOc1nc(OCC=C)nc(OCC=C)n1 qualitative_label=inactive
compound=COc1nc(C)nc(N)n1 qualitative_label=inactive

### Prompt Outcome logged for OC1C(O)C(O)C(O)C(O)C1O (centres undefined) in this assay:
### Response inactive

### Prompt Outcome logged for CCC(=O)/C=C/C1C(C)=CCCC1(C)C (centres undefined) in this assay:
### Response inactive

### Prompt Outcome logged for "NC(=O)Nc1ccc(Cl)cc1" in this assay:
### Response inactive

### Prompt Outcome logged for CC(C=O)Cc1ccc(C(C)C)cc1 (centres undefined) in this assay:
### Response inactive

### Prompt Outcome logged for "CC(=O)C=CC1=C(C)CCCC1(C)C" in this assay:
### Response inactive

### Prompt Outcome logged for "CCCCNC(=O)NS(=O)(=O)c1ccc(N)cc1" in this assay:
### Response inactive

### Prompt Outcome logged for "CCCCOCCOCCSC#N" in this assay:
### Response inactive

### Prompt Outcome logged for CN1[C@@H]2CC(OC(=O)[C@H](CO)c3ccccc3)C[C@H]1[C@@H]1O[C@@H]12 (some centres undefined) in this assay:
### Response inactive

### Prompt Outcome logged for "OC[C@H]1O[C@H](O[C@]2(CCl)O[C@H](CCl)[C@@H](O)[C@@H]2O)[C@H](O)[C@@H](O)[C@H]1Cl" in this assay:
### Response inactive

----------
molecular target: Cellular tumor antigen p53 (Homo sapiens) (UniProt P04637); assay: TOX21_p53_BLA_p4_ratio: Tox21 HCT-116 p53 Agonism Beta-lactamase Assay, Ratio, Phase 4 (AID 2283601)
Results filed as inconclusive are left out. Activity calls are given as the source filed them. The calls were made as follows: active = hit-call score of the fitted dose curve at least 0.9, where 1 is the maximum; inconclusive = response in the unintended direction; inactive = score below 0.9.
Pick one and only one: active, inactive

Here's what some known entries look like.
molecule=O=Cc1ccc(Cl)c([N+](=O)[O-])c1 qualitative_label=inactive
molecule=CN(C)CCCN qualitative_label=inactive

### Prompt Outcome logged for "OCCOCCOCCOCCO" in this assay:
### Response inactive

### Prompt Outcome logged for "O=C(O)c1ccc(C(=O)O)cc1" in this assay:
### Response inactive

### Prompt Outcome logged for "CC[C@]12CCCN3CCc4c(n(c5ccccc45)[C@@](O)(C(=O)OC)C1)[C@@H]32" in this assay:
### Response inactive

### Prompt Outcome logged for "CC(C)C(C)(C)C(C)(C)C(C)(C)S" in this assay:
### Response inactive

----------
assay: ATG_FoxO_CIS: Attagene CIS-FACTORIAL HepG2 Assay for human Forkhead box O (FoxO) (AID 2282943); details: HepG2 Attagene cis-reporter, FoxO element, mRNA; actives raise or lower the signal
Calls of active or inactive are those of the source. The calls were made as follows: active = hit-call score of the fitted dose curve at least 0.9, where 1 is the maximum; inactive = score below 0.9.
Pick one and only one: yes (active), no (inactive)

Here's what some known entries look like.
compound_string=Nc1ccc(S(N)(=O)=O)cc1 qualitative_label=no
compound_string=COc1c(Cl)c(Cl)c(Cl)c(Cl)c1Cl qualitative_label=no

### Prompt Outcome logged for "NCCNCCN" in this assay:
### Response no

### Prompt Outcome logged for "NCCCCCCN" in this assay:
### Response no
